target: BRAF V600E (Homo sapiens, UniProt P15056, V600E); construct: endogenous C-terminal HiBiT fusion tag on BRAF V600E allele; endogenous in cells; host or cells: A375 clone 1F10 (CRISPR-Cas9 knock-in of the HiBiT tag; parental A375 from ATCC); test: BRAF HiBiT degradation assay, C-terminal HiBiT-tagged BRAF V600E A375 cells (clone 1F10), Nano-Glo HiBiT Lytic assay; assay type: cell-based; settings: A375 (BRAF V600E); DC50 at 50%: fitted conc. at Y=50
Sequence (P15056 whole entry V600E, the tested form may be a part): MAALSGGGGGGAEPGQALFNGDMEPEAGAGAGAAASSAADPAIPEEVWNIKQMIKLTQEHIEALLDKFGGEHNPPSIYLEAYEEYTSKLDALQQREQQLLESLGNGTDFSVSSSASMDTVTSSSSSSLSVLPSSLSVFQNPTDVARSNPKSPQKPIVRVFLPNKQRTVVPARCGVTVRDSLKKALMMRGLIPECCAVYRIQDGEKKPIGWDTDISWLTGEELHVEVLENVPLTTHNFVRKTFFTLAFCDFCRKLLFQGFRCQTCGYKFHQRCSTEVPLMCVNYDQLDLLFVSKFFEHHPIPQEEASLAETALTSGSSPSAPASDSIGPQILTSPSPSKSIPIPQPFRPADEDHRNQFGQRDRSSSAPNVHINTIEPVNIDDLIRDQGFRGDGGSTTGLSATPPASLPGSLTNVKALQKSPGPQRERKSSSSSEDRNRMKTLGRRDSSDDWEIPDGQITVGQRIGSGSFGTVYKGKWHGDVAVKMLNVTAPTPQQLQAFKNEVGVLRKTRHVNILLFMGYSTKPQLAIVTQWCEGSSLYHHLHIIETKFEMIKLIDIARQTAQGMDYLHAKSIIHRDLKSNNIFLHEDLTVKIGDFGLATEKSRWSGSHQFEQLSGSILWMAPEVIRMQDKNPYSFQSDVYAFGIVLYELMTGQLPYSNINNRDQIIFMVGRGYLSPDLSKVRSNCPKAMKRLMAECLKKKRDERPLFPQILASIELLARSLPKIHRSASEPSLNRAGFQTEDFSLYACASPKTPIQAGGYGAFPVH
# Lookup of reported DC50 keyed by entry

>  <COMPOUND>
CCCS(=O)(=O)Nc1cccc(-c2nc(C(C)(C)C)sc2-c2ccnc(Nc3ccc(C4CCN(C(=O)[C@@H]5CCN(c6ccc(C7CCC(=O)NC7=O)cn6)C5)CC4)cc3)n2)c1F (mixture of isomers)

>  <DC50>
< 10 nM

$$$$
>  <COMPOUND>
CCCS(=O)(=O)Nc1cccc(-c2nc(C(C)(C)C)sc2-c2ccnc(Nc3cccc(OC4CCN(C(=O)C5CCN(c6cc(C7CCC(=O)NC7=O)ccn6)CC5)CC4)c3)n2)c1F (racemic)

>  <DC50>
< 10 nM

$$$$

Query compound follows.
Query string: Look up and state reported DC50 for CCCS(=O)(=O)Nc1cccc(-c2nc(C3CCN(C(=O)C4(C)CCN(C(=O)CC5CCN(c6ccc(C7CCC(=O)NC7=O)cn6)CC5)CC4)CC3)sc2-c2ccnc(N)n2)c1F (racemic)
Result string: < 10 nM
